# protocol-details: in vivo
# measurement-conditions: rat, plasma, po, 5 mg/kg
half-life under 2 h gets class 1, anything at or over 2 h gets class 0.

Here's an entry: `Cc1c(N2C[C@@H](N)[C@@H](C)C2)c(F)cn2c(=O)c(C(=O)O)cc(C3CC3)c12` . Is its half-life below 2 h?
class 0

For this compound, is half-life lower than 2 h? `Cc1c(N2CC[C@@H](N)C2)c(F)cn2c(=O)c(C(=O)O)cc(C3CC3)c12`
class 1

Please check: half-life for Cc1c(N2CCC(O)C2)c(F)cn2c(=O)c(C(=O)O)cc(C3CC3)c12 (stereo not given) , strictly under 2 h or not?
class 0

Field: below-cutoff. Rule: recorded half-life strictly less than 2 h. Subject: Cc1c(N2CC[C@H](N)C2)c(F)cn2c(=O)c(C(=O)O)cc(C3CC3)c12 [ABT-719]
class 1

Check if half-life falls below 2 h for `Cc1c(N2C[C@@H](N)C[C@@H]2C)c(F)cn2c(=O)c(C(=O)O)cc(C3CC3)c12` .
class 1

###

# assay-system: DNA gyrase (Escherichia coli) (UniProt P0AES6+P0AES4)
# protocol-details: In vitro antibacterial activity against gram-negative organism […] ATCC 13048
# Type: functional
# measurement-conditions: Enterobacter aerogenes
MIC strictly under 0.05 µg/mL means criterion met; at 0.05 µg/mL or over means criterion not met.

Hello, is MIC of the following compound strictly smaller than 0.05 µg/mL? `O=C(O)c1cc(C2CC2)c2nc(N3CCOCC3)c(F)cn2c1=O`
criterion not met

Strictly below 0.05 µg/mL: is that where MIC of `Cc1c(NCCN)c(F)cn2c(=O)c(C(=O)O)cc(C3CC3)c12` sits?
criterion not met

Is MIC of `CO[C@@H]1CN(c2c(F)cn3c(=O)c(C(=O)O)cc(C4CC4)c3c2C)C[C@H]1N` strictly below 0.05 µg/mL?
criterion not met

Take the compound `Cc1c(N2CC[C@H](N)C2)c(F)cn2c(=O)c(C(=O)O)cc(C3CC3)c12` and say whether its MIC is less than 0.05 µg/mL.
criterion met

Identify whether the compound NC1CCN(c2nc3c(C4CC4)cc(C(=O)O)c(=O)n3cc2F)C1 (stereo not drawn) records MIC below 0.05 µg/mL.
criterion met

Determine if `CN1CCN(c2nc3c(C4CC4)cc(C(=O)O)c(=O)n3cc2F)CC1` shows MIC strictly lower than 0.05 µg/mL.
criterion not met

Quick check: MIC of `Cc1c(N2C[C@H]3CCC[C@@H](N)[C@H]3C2)c(F)cn2c(=O)c(C(=O)O)cc(C3CC3)c12` under 0.05 µg/mL?
criterion not met

Please determine if `Cc1c(N2CC[C@H](O)C2)c(F)cn2c(=O)c(C(=O)O)cc(C3CC3)c12` is below 0.05 µg/mL in terms of MIC.
criterion not met

Given `Cc1c(N2C[C@@H](C)N[C@@H](C)C2)c(F)cn2c(=O)c(C(=O)O)cc(C3CC3)c12` , is recorded MIC strictly lower than 0.05 µg/mL?
criterion not met

hey, is MIC for NC1CCN(c2c(F)cn3c(=O)c(C(=O)O)cc(C4CC4)c3c2Cl)C1 (stereo not drawn) lower than 0.05 µg/mL or not?
criterion not met

Determine if CNC1CCN(c2c(F)cn3c(=O)c(C(=O)O)cc(C4CC4)c3c2C)C1 (stereo not drawn) shows MIC strictly lower than 0.05 µg/mL.
criterion met

Here's an entry: `Cc1c(N2C[C@@H](N)C[C@H]2C)c(F)cn2c(=O)c(C(=O)O)cc(C3CC3)c12` . Is its MIC below 0.05 µg/mL?
criterion not met

Strictly below 0.05 µg/mL: is that where MIC of Cc1c(N2CCC(O)C2)c(F)cn2c(=O)c(C(=O)O)cc(C3CC3)c12 (stereo not drawn) sits?
criterion met
